METHOD_DESCRIPTION: in vitro
SETUP_CONDITIONS: human, hela cells, % viability
For each of the compounds below, state its viability at 28.5 h, 10 µM.
Just the number in %, nothing appended.

Q. For CCOC(=O)Nc1ccc(S(=O)(=O)Nn2cnnc2)cc1 [CBK262138] , what is its reported viability at 28.5 h, 10 µM?
A. 105

Q. For CC(C)Nc1nc2cc(Cl)c(Cl)cc2nc1OCc1cccnc1 [CBK115743] , what is its reported viability at 28.5 h, 10 µM?
A. 97.4

Q. For COc1ccccc1CCC(=O)N1CCCc2c(cnn2C)C1 [CBK284847] , what is its reported viability at 28.5 h, 10 µM?
A. 80

Q. For COC(=O)c1cccc(CN2CCC3(CC2)OCCc2c3[nH]c3ccc(F)cc23)c1 [CBK040326] , what is its reported viability at 28.5 h, 10 µM?
A. 100

Q. For Cc1nn(CCC#N)c(C)c1[C@@H]1C=C[C@@H](NS(=O)(=O)c2ccccc2)C1 [CBK288805] , what is its reported viability at 28.5 h, 10 µM?
A. 91

Q. For CCOc1ccc(Nc2ncnc3c2cnn3Cc2ccccc2)cc1 [CBK072752] , what is its reported viability at 28.5 h, 10 µM?
A. 97.8

Q. For FC(F)(F)c1cccnc1OCCN1CCOCC1 [CBK113456] , what is its reported viability at 28.5 h, 10 µM?
A. 101

Q. For O=C(Cn1c2ccccc2c2ccccc21)N1CCn2cnnc2C1 [CBK283724] , what is its reported viability at 28.5 h, 10 µM?
A. 88.2

Q. For COc1ccc(-c2n[nH]c(=S)n2CC(=O)Nc2ccc(NC(=O)CC(C)C)cc2)cc1 [CBK295342] , what is its reported viability at 28.5 h, 10 µM?
A. 100
